FYI, the data here is from patent US8822505B2.

target: human Cat S (Homo sapiens (Human)); assay: Cathepsin enzyme inhibition assay (human Cat S); format: biochemical; conditions: enzyme 1 nM, substrate Z-Val-Val-Arg-AMC 20 μM, pH 6.5
Sequence (P25774 115-331): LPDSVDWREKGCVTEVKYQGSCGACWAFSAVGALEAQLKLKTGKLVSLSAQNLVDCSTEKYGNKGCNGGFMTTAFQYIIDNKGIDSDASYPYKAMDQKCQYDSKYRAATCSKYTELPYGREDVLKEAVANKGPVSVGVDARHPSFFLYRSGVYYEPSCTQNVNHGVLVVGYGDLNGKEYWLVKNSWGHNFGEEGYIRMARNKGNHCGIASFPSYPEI
Counter-ions that a name gives are not always drawn.
property: IC50 (nM)

[1] CC(C)(C)OC(=O)N1CCC1(C(=O)N1C[C@H](S(=O)(=O)c2ccc(F)cc2Cl)C[C@H]1C(=O)NC1(C#N)CC1)c1ncc(Cl)cc1F (stereo partly drawn) [Example 23]
[2] CC(C)(C)OC(=O)N1CCC1(C(=O)N1C[C@H](S(=O)(=O)c2ccc(F)cc2Cl)C[C@H]1C(=O)NC1(C#N)CC1)c1ncc(Br)cc1F (stereo partly drawn) [Example 26]
[3] Cc1cc(-c2ccc(S(=O)(=O)[C@@H]3C[C@@H](C(=O)NC4(C#N)CC4)N(C(=O)C4(c5ncc(Br)cc5F)CCN4)C3)c(Cl)c2)ccn1 (stereo partly drawn) [Example 44, hydrochloride]
Q: Using measured IC50, arrange the molecules from above in descending sequence. A ranking is expressed here by listing the labels in the requested order.
Result: 2, 3, 1

---

target: human Cat L (Homo sapiens (Human)); assay: Cathepsin enzyme inhibition assay (human Cat L); assay type: biochemical; conditions: enzyme 1 nM, substrate Z-Val-Val-Arg-AMC 20 μM, pH 6.5
Sequence (P07711 114-333): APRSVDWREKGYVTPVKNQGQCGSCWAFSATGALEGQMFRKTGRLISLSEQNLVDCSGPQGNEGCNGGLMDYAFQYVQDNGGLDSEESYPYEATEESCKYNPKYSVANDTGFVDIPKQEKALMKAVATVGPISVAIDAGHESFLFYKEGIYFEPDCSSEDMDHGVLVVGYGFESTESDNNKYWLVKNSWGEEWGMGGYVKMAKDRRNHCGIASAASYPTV
property: IC50 (nM)

{"molecule": "CC(C)(C)OC(=O)N1CCC1(C(=O)N1C[C@H](S(=O)(=O)c2ccc(F)cc2Cl)C[C@H]1C(=O)NC1(C#N)CC1)c1ncc(Cl)cc1F (stereo partly drawn) [Example 24]", "measured_on": "human Cat L (Homo sapiens (Human))", "IC50 [nM]": 922}

[A] C[C@H](Oc1ccc(S(=O)(=O)[C@@H]2C[C@@H](C(=O)NC3(C#N)CC3)N(C(=O)C3(c4ncc(Br)cc4F)CN(C=O)C3)C2)c(Cl)c1)C(F)(F)F
[B] CC(C)(C)OC(=O)N1CCC1(C(=O)N1C[C@H](S(=O)(=O)c2ccc(F)cc2Cl)C[C@H]1C(=O)NC1(C#N)CC1)c1ncc(Cl)cc1F (stereo partly drawn) [Example 21]
Q: Field: entry with larger IC50 (options A / B ). Bench note: the answer is the label of the chosen record.
Result: B
(B: 1340 nM, A: 5 nM)

---

molecular target: human Cat S (Homo sapiens (Human)); assay: Cathepsin enzyme inhibition assay (human Cat S); assay type: biochemical; settings: enzyme 1 nM, substrate Z-Val-Val-Arg-AMC 20 μM, pH 6.5, hydrochloride
pIC50: −log10 of the molar value. Counter-ions that a name gives are not always drawn.
property: pIC50

{"compound": "C[C@H](Oc1ccc(S(=O)(=O)[C@@H]2C[C@@H](C(=O)NC3(C#N)CC3)N(C(=O)C3(c4ncc(Cl)cc4F)CCN3)C2)c(Cl)c1)C(F)(F)F (stereo partly shown) [Example 38, hydrochloride]", "pIC50": 8.38}

[A] N#CC1(NC(=O)[C@@H]2C[C@@H](S(=O)(=O)c3ccc(F)cc3Cl)CN2C(=O)C2(c3ncc(Cl)cc3F)CCN2)CC1 (stereo partly shown) [Example 31, hydrochloride]
[B] C[C@H](Oc1ccc(S(=O)(=O)[C@@H]2C[C@@H](C(=O)NC3(C#N)CC3)N(C(=O)C3(c4ncc(Cl)cc4F)CCN3)C2)c(Cl)c1)C(F)(F)F (stereo partly shown) [Example 37, hydrochloride]
Q: Lower value of pIC50 belongs to which: A or B ? Use the label to indicate which entry you chose.
Result: B
